Molecular target: STK16 (human) (UniProt O75716)
Sequence (O75716 whole entry, looked up): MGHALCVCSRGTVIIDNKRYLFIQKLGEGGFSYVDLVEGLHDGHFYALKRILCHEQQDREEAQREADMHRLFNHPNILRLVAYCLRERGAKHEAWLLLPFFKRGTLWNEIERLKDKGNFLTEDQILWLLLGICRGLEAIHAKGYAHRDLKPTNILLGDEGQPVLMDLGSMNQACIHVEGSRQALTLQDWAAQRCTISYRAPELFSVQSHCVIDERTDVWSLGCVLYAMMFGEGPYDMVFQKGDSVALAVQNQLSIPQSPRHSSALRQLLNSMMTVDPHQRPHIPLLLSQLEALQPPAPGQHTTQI
Assay: radiometric filter-binding kinase assay, Kinase HotSpot
Conditions: compound 0.5 µM; ATP 10 µM
Assay Endpoint: residual activity (%)
Give bare numbers, in %.

{"Compound": "O=C1Nc2ccccc2/C1=C\\c1c(Cl)[nH]c2ccccc12", "Assay System": "STK16 (human) (UniProt O75716)", "Assay Endpoint": "residual activity", "Readout Unit": "%", "Value": 102}
{"Compound": "NC(=O)c1ccc(N(C(N)=O)c2c(F)cccc2F)nc1-c1ccc(F)cc1F", "Assay System": "STK16 (human) (UniProt O75716)", "Assay Endpoint": "residual activity", "Readout Unit": "%", "Value": 100}
{"Compound": "O=C(NC(NC(=S)Nc1ccc(F)c([N+](=O)[O-])c1)C(Cl)(Cl)Cl)C(c1ccccc1)c1ccccc1 (stereo not given)", "Assay System": "STK16 (human) (UniProt O75716)", "Assay Endpoint": "residual activity", "Readout Unit": "%", "Value": 99.4}

Provide the reported residual activity of each entry below, same order.
1. O=c1cc(N2CCNCC2)oc2c(-c3ccccc3)cccc12
2. CCN1/C(=C/C(C)=O)Sc2ccc(OC)cc21

97.4
87.4

Provide the reported residual activity of each entry below, same order.
1. CSc1nc(-c2ccc(F)cc2)c(-c2ccnc(NC(C)c3ccccc3)c2)[nH]1 (stereo not given)
2. CS(=O)c1ccc(-c2nc(-c3ccc(F)cc3)c(-c3ccncc3)[nH]2)cc1 (stereo not given)
3. CC(C)(C)c1nc2c3ccc(F)cc3c3c(=O)[nH]ccc3c2[nH]1
4. C#Cc1cccc(Nc2ncnc3cc(OCCOC)c(OCCOC)cc23)c1

1. 95.1
2. 111
3. 90.1
4. 98

Item Nc1nc(Nc2ccc(S(N)(=O)=O)cc2)nn1C(=S)Nc1c(F)cccc1F with STK16 (human) (UniProt O75716) - residual activity?
42.5
